System: CWR22R
Assay: Antiproliferative activity against human 22Rv1 cells after 96 hrs by propidium iodide staining based fluorescence 2D monolayer assay
Type: functional, cell-based
Details: 22Rv1, 96 h
property: log10(IC50) (log10 of the value in µM)

[
  {
    "compound": "CC(O)(COc1ccc(F)c(F)c1)C(=O)Nc1ccc(C#N)cc1C(F)(F)F (stereo not drawn)",
    "target-or-system": "CWR22R",
    "log10(IC50)": 1.57
  },
  {
    "compound": "CC(O)(COc1ccc(C(F)(F)F)cc1)C(=O)Nc1ccc([N+](=O)[O-])cc1C(F)(F)F (stereo not drawn)",
    "target-or-system": "CWR22R",
    "log10(IC50)": 1.28
  },
  {
    "compound": "CC(O)(CSc1cc(C(F)(F)F)ccn1)C(=O)Nc1ccc([N+](=O)[O-])cc1C(F)(F)F (stereo not drawn)",
    "target-or-system": "CWR22R",
    "log10(IC50)": 1.06
  },
  {
    "compound": "CC1(C)C(=O)N(c2cccc(C(F)(F)F)c2)C(=O)N1c1ccc([N+](=O)[O-])cc1C(F)(F)F",
    "target-or-system": "CWR22R",
    "log10(IC50)": 0.70
  },
  {
    "compound": "CC(O)(CSc1ccc(F)c(F)c1)C(=O)Nc1ccc([N+](=O)[O-])cc1C(F)(F)F (stereo not drawn)",
    "target-or-system": "CWR22R",
    "log10(IC50)": 1.92
  },
  {
    "compound": "CC(O)(CSc1ccccc1OC(F)(F)F)C(=O)Nc1ccc([N+](=O)[O-])cc1C(F)(F)F (stereo not drawn)",
    "target-or-system": "CWR22R",
    "log10(IC50)": 0.67
  },
  {
    "compound": "CC(O)(CSc1cccc(C(F)(F)F)c1)C(=O)Nc1ccc(C(F)(F)F)cc1 (stereo not drawn)",
    "target-or-system": "CWR22R",
    "log10(IC50)": 1.27
  },
  {
    "compound": "CC(O)(COc1cccc(OC(F)(F)F)c1)C(=O)Nc1ccc(C#N)cc1C(F)(F)F (stereo not drawn)",
    "target-or-system": "CWR22R",
    "log10(IC50)": 1.46
  },
  {
    "compound": "CC(O)(CSc1ccc(C(F)(F)F)cc1)C(=O)Nc1ccc([N+](=O)[O-])cc1C(F)(F)F (stereo not drawn)",
    "target-or-system": "CWR22R",
    "log10(IC50)": 1.16
  },
  {
    "compound": "CC(O)(CSc1cccc(OC(F)(F)F)c1)C(=O)Nc1ccc(C(F)(F)F)cc1 (stereo not drawn)",
    "target-or-system": "CWR22R",
    "log10(IC50)": 1.20
  },
  {
    "compound": "C[C@](O)(CS(=O)(=O)c1cccc(C(F)(F)F)c1)C(=O)Nc1ccc(C#N)c(C(F)(F)F)c1",
    "target-or-system": "CWR22R",
    "log10(IC50)": 1.41
  },
  {
    "compound": "CC(O)(CS(=O)(=O)c1ccc(C(F)(F)F)cc1)C(=O)Nc1ccc(C#N)c(C(F)(F)F)c1 (stereo not drawn)",
    "target-or-system": "CWR22R",
    "log10(IC50)": 1.33
  },
  {
    "compound": "CC(O)(COc1ccc(C(F)(F)F)cn1)C(=O)Nc1ccc(C#N)cc1C(F)(F)F (stereo not drawn)",
    "target-or-system": "CWR22R",
    "log10(IC50)": 2.00
  },
  {
    "compound": "CC(O)(CSc1ccc(C(F)(F)F)cn1)C(=O)Nc1ccc([N+](=O)[O-])cc1C(F)(F)F (stereo not drawn)",
    "target-or-system": "CWR22R",
    "log10(IC50)": 1.13
  },
  {
    "compound": "CC(O)(COc1cccc(OC(F)(F)F)c1)C(=O)Nc1ccc([N+](=O)[O-])c(C(F)(F)F)c1 (stereo not drawn)",
    "target-or-system": "CWR22R",
    "log10(IC50)": 0.97
  },
  {
    "compound": "CC(O)(CS(=O)(=O)c1ccc(C(F)(F)F)cc1)C(=O)Nc1ccc(C#N)cc1C(F)(F)F (stereo not drawn)",
    "target-or-system": "CWR22R",
    "log10(IC50)": 1.45
  },
  {
    "compound": "CC(O)(COc1ccc(F)cc1F)C(=O)Nc1ccc(C#N)cc1C(F)(F)F (stereo not drawn)",
    "target-or-system": "CWR22R",
    "log10(IC50)": 1.78
  }
]
